# Test system: ACHN renal
# Procedure text: NCI-60 one-dose screen, 48 h (100 = growth as untreated, 0 = no growth, -100 = all killed)
# Measurement parameters: 10 µM unless noted
Compounds without any hit were thinned out: in the full panel of roughly 83,000, 20% have a hit.
Reported endpoint: growth (%)
# value in %; strip the unit string

Dear colleague, I am looking for the recorded growth of the following compound: `CN1C(=O)C(=Cc2cn(CCCCCCn3c4ccccc4c(=O)c4ccccc43)c3ccccc23)C(=O)N(C)C1=O`
92.9

Record: `O=NNc1ccccn1`
11.2

Input `C#Cc1ccc2c(c1)C(c1ccccc1F)=NCC(=O)N2C`
56.9

Also `CC1(C)N=C(N)N=C(N)N1c1ccc(OCCCNC(=O)Nc2ccc(S(=O)(=O)F)cc2)c(Cl)c1` ?
26.4

And what about the compound `CC(C)[C@@H]1NC(=O)[C@]2(C)CSC(=N2)c2csc(n2)CNC(=O)C[C@@H](/C=C/CCS)OC1=O` ?
5.8

Next entry: `CCOP(=O)(NC[C@H]1O[C@](O)(CO)[C@@H](O)[C@@H]1O)OCC`
103

Follow-up entry: `COc1cc2c(c(OC)c1OC)-c1ccc([O-])c(=O)cc1[C@@H](NC(C)=O)CC2.COc1cc2c(c(OC)c1OC)-c1ccc([O-])c(=O)cc1[C@@H](NC(C)=O)CC2.[Cu+2]`
53.6

What do you have for `c1cc2c(c3c1CCNC3)OCO2` ?
111

# repeat for `CC(C)(N)Cc1ccccc1`
106

Can you handle `CC(C)CCC1(CCCl)C(=O)NC(=O)NC1=O` next?
102

Another compound: `c1cnc2[nH]cc(-c3csc(-c4cn(CCCCN5CCOCC5)c5ccccc45)n3)c2c1`
32.4
